System: K4 kissing-loop RNA reporter;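 note: bound reporter read as fluorescence of individual clusters on recovered sequencing chips by microscopy, with normalized cluster intensities fitted with a binding model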
Assay: apparent KD of K4 kissing-loop reporter; higher = weaker reporter binding
Details: Eterna round: R107; input ligand: FMN 200 uM
Would you please tag the item true when its apparent KD of K4 kissing-loop reporter is 300 nM or above, and false when it is below?

[
  {
    "seq": "CGCACACUUGUUGAUACCAGAAGCCGACCGGAAACAUCAUUGAGUGAUGUUCAAGCUGUUUUCCCUUGGCAGCAAACGAGUGGUC [theeternabot_exclusion_KL_Theo_B_22]",
    "label value": "false"
  },
  {
    "seq": "AAUAAGUGUCAGCGAGUGAUGUUCGACGAUACCAGACUCGAUAGAGUCCCUUGGCAGCGUAACGCAUGCCAAACUGGCACAAUAA [#SwitchBubble 8 #K4Early]",
    "label value": "true"
  },
  {
    "seq": "AGGCACGAGCAAGGAUAUUGAGUAGAGUGAUGUUCUGCCUGGGUUGGCUCGGAAGAGCCUUCUCAGCGAGAAGGUGCUCGUGCCU [#2 Same State - FMN A Attempt #24 (HarryS)]",
    "label value": "false"
  },
  {
    "seq": "GCCUAGCAGGGAAGGAGCGCCAGGAGAAGAAAUGGAGAGAGUUGAGUGAUGUUCAAAUGGUGGCAGGUAGGUCGCCCUGCUAGGC [KL-SSArg B12]",
    "label value": "true"
  },
  {
    "seq": "ACGUAUAUCAGAGGAUAUCGUAUUAAUAUUUUAUCUAUAUAUAUAUGCAGUGAUGUUGCUAUAAUUCGAGAAGGCUGAUUUACGA [JR_ExcFMNB_Sub011]",
    "label value": "false"
  },
  {
    "seq": "AGGUGAGACUGAAGGAGCGAUCGCGCUAGUGAUGUUGGCGAGCAUGACAAAGUCAUGCACGAUCAGGUAGGUCGCAGUCUUACUC [Omei KL Arginine B SS B v1]",
    "label value": "false"
  },
  {
    "seq": "CACGAUGAAUUCUCUAGGAGUGAUGUUUUUCGAGGACCGGUACGGCCGCCACUCGGACCAGGAACGUGGGAGCGGCGAAAAGACU [jbmullin]",
    "label value": "true"
  },
  {
    "seq": "AGGCACGAGCAAGGAUAUCGAGUAGAGUGAUGUUCUGCCUGGGUUGGCUCGAAAGGGCCUUCCCAGCGAGAAGGUGCUCGUGCCU [#2 Same State - FMN A Attempt #14 (HarryS)]",
    "label value": "false"
  },
  {
    "seq": "CGGUACGUCGCAGGAUAUGGAUUCUGGAGUGAUGUUUCAGAGGCAUGCGGAAAACGCAUGCCGACUCCAGAAGGGCGACGUACCG",
    "label value": "true"
  },
  {
    "seq": "AGGAUCCACCAGUGAUGUUGGAAAUACUCCAAGGAUAUGACGAAAGUCAGAAGGUGGUAGACUGGACAAAGUCCAGUCGGAUCCA [FmnA 28 #SwitchBubble #K4Early]",
    "label value": "true"
  },
  {
    "seq": "AAAGAUCUUCUAGAAACUAGAAGAUCAAGAGAGGAUAUCCGAAUUCGGAGAAGGCUCACUAAGUGAUGUUUGGAGGGAAUCCCAA [AK1 SS FMN A]",
    "label value": "true"
  }
]
